# Test system: Human umbilical vein endothelial cells (HUVECs)
# Assay Protocol: Cytotoxic assay on HUVECs (CellTiter-Blue)
# Type: cell-based
# Experimental Conditions: HUVEC, 72 h, read-out: HUVECs (IC50 µM)
Observable: IC50 (µM)

| Molecule | Observed |
| --- | --- |
| CO[C@@H]1[C@H](OC(=O)/C=C/C=C/C=C/C=C/C(=O)O)CC[C@]2(CO2)[C@H]1[C@@]1(C)O[C@@H]1CC=C(C)C [Fumagillin, reference compound] | 0.006 |

----------
# Test system: Trypanosoma brucei brucei strain 93 bloodstream forms
# Assay Protocol: In vitro inhibition of T. brucei brucei growth (AlamarBlue/resazurin)
# Assay type: cell-based
# Experimental Conditions: bloodstream forms strain 93, 72 h incubation + 4 h resazurin, mean ± SD of three independent experiments

| Molecule | Output Unit | IC50 |
| --- | --- | --- |
| N=C(N)c1ccc(OCCCCCOc2ccc(C(=N)N)cc2)cc1 [Pentamidine, reference compound] | µM | 0.011 |

Value source: paper PMC8877094
